Please respond with reported cytotoxicity at 41 h, 10 µM for every item in the list.
- test.summary: in vitro
Counter-ions that a name gives are not always drawn.

Look at this molecule and give its reported cytotoxicity at 41 h, 10 µM. CC[C@H]1CN2CCc3cc(OC)c(OC)cc3[C@@H]2C[C@@H]1C[C@H]1NCCc2cc(OC)c(OC)cc21 [EMETINE DIHYDROCHLORIDE]
62.4%

Can you handle `C=C[C@H]1C[N@@]2CC[C@H]1C[C@@H]2[C@@H](O)c1ccnc2ccccc12` next?
0.4%

Let us now turn to `C[C@@H]1O[C@@H](O[C@H]2C[C@@H](O)[C@]3(CO)[C@H]4[C@H](O)C[C@]5(C)[C@@H](C6=CC(=O)OC6)CC[C@]5(O)[C@@H]4CC[C@]3(O)C2)[C@H](O)[C@H](O)[C@H]1O`
100%

Same again, this time with `C[C@@H]1CC[C@@]2(OC1)O[C@H]1C[C@H]3[C@@H]4CC[C@H]5C[C@@H](O)CC[C@]5(C)[C@H]4CC[C@]3(C)[C@H]1[C@@H]2C`
-31.8%

Proceed to `CC(C)CCC[C@@H](C)[C@H]1CC[C@H]2[C@@H]3CC(=O)[C@H]4C[C@@H](O)CC[C@]4(C)[C@H]3CC[C@]12C`
30.6%

Next molecule: `C=C[C@H]1CN2CC[C@H]1C[C@H]2[C@H](O)c1ccnc2ccccc12`
-15.2%
